target: Matrix metalloproteinase-9 (Homo sapiens, UniProt P14780)
Sequence (P14780 whole entry): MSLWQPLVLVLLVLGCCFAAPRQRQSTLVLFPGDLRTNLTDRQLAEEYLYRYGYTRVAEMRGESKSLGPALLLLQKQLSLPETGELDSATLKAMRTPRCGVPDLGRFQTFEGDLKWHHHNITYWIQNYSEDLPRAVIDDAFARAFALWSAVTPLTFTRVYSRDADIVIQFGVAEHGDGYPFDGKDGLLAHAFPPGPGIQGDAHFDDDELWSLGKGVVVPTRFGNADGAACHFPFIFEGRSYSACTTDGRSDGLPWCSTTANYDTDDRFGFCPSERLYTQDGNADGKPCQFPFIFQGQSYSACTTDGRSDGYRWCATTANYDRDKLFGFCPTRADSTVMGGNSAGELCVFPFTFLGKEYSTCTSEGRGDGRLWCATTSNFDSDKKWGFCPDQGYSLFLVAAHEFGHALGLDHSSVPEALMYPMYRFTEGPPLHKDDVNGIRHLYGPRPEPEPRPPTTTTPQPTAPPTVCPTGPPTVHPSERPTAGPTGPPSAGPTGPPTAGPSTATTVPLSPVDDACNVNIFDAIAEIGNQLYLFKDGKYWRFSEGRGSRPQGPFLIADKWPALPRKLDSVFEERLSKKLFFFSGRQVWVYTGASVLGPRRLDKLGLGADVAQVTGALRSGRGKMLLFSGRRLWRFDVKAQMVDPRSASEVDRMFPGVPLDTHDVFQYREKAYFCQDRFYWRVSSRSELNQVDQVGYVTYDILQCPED
pIC50: −log10 of the molar value.
Quick list: pIC50 per entry.

> print(dat)
                         structure.notation  experimental.result
1  Cc1cc(N)c2cc(NC(=O)c3ccc(-c4cccnc4)cc3)ccc2n1               < 4.00
2  COc1ccccc1/C=C/C(=O)Nc1ccc2nc(C)cc(N)c2c1               < 4.00
3  Cc1cc(N)c2cc(NC(=O)c3ccc(-c4ccccc4)cc3)ccc2n1               < 4.00

# input # get_value(readout='pIC50', item= `COc1ccc2[nH]c(C(=O)Nc3ccc4nc(C)cc(N)c4c3)cc2c1` )
# output < 4.00

# input Given `Cc1cc(N)c2cc(NC(=O)COc3ccc(OCc4ccccc4)cc3)ccc2n1` , state its recorded pIC50.
# output < 4.00

====

Catalogue of IC50 values
biological target: Lethal factor (Bacillus anthracis, UniProt P15917); test: Inhibition of Bacillus anthracis lethal factor assessed as MCA-KKVYPYPME[dnp]K amide cleavage after 30 mins by fluorescence plate reader analysis
Sequence (P15917 whole entry): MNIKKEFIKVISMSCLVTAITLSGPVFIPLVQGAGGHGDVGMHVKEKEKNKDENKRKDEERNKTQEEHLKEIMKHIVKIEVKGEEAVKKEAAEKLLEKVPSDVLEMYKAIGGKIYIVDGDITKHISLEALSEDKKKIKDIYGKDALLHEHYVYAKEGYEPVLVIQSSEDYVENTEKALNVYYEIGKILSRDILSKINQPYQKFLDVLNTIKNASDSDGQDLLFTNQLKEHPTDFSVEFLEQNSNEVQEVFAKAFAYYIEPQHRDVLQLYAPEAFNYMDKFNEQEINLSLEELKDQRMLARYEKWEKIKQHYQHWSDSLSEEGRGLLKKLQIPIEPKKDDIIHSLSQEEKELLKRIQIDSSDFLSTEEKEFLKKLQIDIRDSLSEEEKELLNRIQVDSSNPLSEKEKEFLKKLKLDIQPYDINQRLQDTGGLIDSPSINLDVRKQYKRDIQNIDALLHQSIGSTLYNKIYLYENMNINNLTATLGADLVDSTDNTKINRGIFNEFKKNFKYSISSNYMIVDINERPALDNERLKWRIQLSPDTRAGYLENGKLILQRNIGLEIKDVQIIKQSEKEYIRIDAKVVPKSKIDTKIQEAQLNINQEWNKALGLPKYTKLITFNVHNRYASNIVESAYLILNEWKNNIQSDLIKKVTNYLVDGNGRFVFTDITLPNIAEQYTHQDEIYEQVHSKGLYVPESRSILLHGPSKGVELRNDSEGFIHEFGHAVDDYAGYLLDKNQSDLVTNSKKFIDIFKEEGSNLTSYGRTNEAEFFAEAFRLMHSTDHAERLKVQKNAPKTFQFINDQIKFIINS

> print(dat)
                   structure.notation  outcome.measure  experimental.result
1  Cc1cc(N)c2cc(NC(=O)c3cccnc3)ccc2n1             IC50             > 100 µM

# input Endpoint output: IC50 of `COc1ccc(OC)c(CCC(=O)Nc2ccc3nc(C)cc(N)c3c2)c1` . Value?
# output > 100 µM

# input Which IC50 is reported for this molecule? `Cc1cc(N)c2cc(NC(=O)Nc3ccc4c(c3)OCO4)ccc2n1`
# output > 100 µM

# input For the molecule `Cc1cc(N)c2cc(NC(=O)CCc3ccccc3Cl)ccc2n1` , what IC50 is on record?
# output > 100 µM
